- System: Wt cells (92TAg)
- Protocol Notes: TMZ growth inhibition assay (modified MTT, MTS)
- Type: cell-based
- Measurement Setup: Mus musculus, TMZ exposure 48 hr
Measurement Kind: IC50 (µM)

                                   compound  readout_value
0  Cn1nnc2c(C(N)=O)ncn2c1=O [TMZ, temozolomide]           2600
